Test system: HEK-293 (Normal cell line, Human embryonic kidney)
Assay: MTT cytotoxicity assay, HEK-293
Format: cell-based
Conditions: Homo sapiens, HEK293, after 48 h of compound treatment, compounds
measured.quantity: pIC50
Remember the convention: pIC50 equals -log10 of concentration in molar.

Need pIC50, item CC(=O)C1=C(O)C=C2Oc3c(C(C)=O)c(O)c(C)c(O)c3C2(C)C1=O (single isomer, unassigned; (+)) [compound 22, (+)-usnic acid]
3.90

###

Items are presented alongside their recorded pIC50.
System: HeLa (Human cervical cancer)
Assay: MTT cytotoxicity assay, HeLa
Assay type: cell-based
Conditions: 50% cell proliferation inhibitory concentration after 48 h of compound treatment, compounds
Remember the convention: pIC50 equals -log10 of concentration in molar.

Please review the entries below; each comes with its answer.
CC1=C(C(=O)O)[C@H](CCCCCCCCCCCCCC(C)O)OC1=O (some centres unmarked) [compound 20, neuropogolic acid]    4.63
COc1cc(C)c(C(=O)Oc2cc(C)c(C(=O)O)c(O)c2C)c(O)c1C [compound 21, barbatic acid]    5.52
C[C@@H]1C(=O)OC(CCCCCCCCCCCCC[C@@H](C)O)C1C(=O)O (some centres unmarked) [compound 19]    4.64

Need pIC50, item COc1cccc2c1C(=O)c1c(O)c3c(c(O)c1C2=O)C[C@@](O)(C(=O)CO)C[C@@H]3O[C@H]1C[C@H](N)[C@H](O)[C@H](C)O1 [Doxorubicin, doxorubicin, reference compound]
5.81

Consider next the compound CC(=O)C1=C(O)C=C2Oc3c(C(C)=O)c(O)c(C)c(O)c3C2(C)C1=O (single isomer, unassigned; (+)) [compound 22, (+)-usnic acid] in the same way.
4.72
